- TARGET SYSTEM: rat α3β4 nAChR (Rattus norvegicus, UniProt P04757+P12392)
- Sequence (P04757 26-499): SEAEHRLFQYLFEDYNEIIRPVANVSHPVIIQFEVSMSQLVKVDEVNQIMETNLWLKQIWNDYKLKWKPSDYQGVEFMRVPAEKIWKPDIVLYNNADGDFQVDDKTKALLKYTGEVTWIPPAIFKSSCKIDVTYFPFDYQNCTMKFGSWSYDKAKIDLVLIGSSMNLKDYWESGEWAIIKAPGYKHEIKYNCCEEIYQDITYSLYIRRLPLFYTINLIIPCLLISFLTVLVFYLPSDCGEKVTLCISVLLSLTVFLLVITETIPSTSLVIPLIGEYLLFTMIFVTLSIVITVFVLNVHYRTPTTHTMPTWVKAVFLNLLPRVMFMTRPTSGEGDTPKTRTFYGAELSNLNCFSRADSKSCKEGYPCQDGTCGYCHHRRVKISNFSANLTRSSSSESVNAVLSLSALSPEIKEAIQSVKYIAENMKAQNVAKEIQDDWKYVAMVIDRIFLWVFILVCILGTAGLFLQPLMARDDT
- Sequence (P12392 21-495): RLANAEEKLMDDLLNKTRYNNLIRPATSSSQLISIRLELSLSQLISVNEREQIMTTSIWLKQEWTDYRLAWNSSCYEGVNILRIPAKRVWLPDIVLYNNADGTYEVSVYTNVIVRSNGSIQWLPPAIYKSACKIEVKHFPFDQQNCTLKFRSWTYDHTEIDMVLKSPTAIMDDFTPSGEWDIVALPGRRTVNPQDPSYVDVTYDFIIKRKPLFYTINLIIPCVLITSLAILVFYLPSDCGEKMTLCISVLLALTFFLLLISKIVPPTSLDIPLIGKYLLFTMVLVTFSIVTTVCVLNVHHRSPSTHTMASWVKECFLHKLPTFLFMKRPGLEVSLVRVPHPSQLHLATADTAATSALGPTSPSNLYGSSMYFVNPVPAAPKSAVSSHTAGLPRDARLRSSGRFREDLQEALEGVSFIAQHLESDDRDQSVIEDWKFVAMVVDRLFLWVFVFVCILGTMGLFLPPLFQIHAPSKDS
- METHOD SUMMARY: TEVC in Xenopus oocytes, selectivity on α3β4

COMPOUND | EC50
O=C(N[C@H]1CN2CCC1CC2)c1cc2cccc(Br)n2c1 [Br-IQ17B] | > 100 µM

====

- TARGET SYSTEM: rat α4β2 nAChR (Rattus norvegicus, UniProt P09483+P12390)
- Sequence (P09483 31-630): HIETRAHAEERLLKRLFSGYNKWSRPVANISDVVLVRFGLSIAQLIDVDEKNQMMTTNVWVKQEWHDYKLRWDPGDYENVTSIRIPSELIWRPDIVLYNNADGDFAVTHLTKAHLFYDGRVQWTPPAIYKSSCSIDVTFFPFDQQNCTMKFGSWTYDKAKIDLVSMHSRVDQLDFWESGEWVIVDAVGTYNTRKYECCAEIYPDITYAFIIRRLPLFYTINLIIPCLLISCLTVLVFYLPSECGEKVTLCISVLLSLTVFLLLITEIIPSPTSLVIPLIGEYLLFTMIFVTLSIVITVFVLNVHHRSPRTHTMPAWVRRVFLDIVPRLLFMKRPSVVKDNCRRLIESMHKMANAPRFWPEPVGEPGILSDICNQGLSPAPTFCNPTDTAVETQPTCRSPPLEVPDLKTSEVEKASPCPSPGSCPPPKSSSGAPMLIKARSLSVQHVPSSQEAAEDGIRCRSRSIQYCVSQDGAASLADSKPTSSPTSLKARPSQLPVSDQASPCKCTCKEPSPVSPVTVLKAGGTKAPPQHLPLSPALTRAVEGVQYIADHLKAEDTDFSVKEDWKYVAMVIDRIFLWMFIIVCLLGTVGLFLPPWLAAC
- Sequence (P12390 25-500): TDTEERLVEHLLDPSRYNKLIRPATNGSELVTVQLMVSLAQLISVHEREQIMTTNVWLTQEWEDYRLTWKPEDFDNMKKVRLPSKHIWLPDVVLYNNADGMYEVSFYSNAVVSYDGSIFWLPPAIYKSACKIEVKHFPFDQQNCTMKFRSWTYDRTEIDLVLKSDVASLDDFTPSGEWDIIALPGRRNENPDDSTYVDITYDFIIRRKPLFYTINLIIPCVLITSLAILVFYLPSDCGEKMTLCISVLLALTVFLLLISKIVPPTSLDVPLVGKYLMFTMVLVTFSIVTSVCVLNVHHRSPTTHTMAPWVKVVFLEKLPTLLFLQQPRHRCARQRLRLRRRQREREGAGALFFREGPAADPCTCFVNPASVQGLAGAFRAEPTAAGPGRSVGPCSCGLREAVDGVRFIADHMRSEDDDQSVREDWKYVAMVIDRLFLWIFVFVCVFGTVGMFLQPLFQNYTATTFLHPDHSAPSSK
- METHOD SUMMARY: TEVC in Xenopus oocytes, selectivity on α4β2
pEC50: −log10 of the molar value.
MEASUREMENT KIND: pEC50

COMPOUND | TARGET SYSTEM | OBSERVED
O=C(N[C@H]1CN2CCC1CC2)c1cc2cccc(Br)n2c1 [Br-IQ17B] | rat α4β2 nAChR (Rattus norvegicus, UniProt P09483+P12390) | < 4.00

====

- TARGET SYSTEM: human 5-HT3A receptor (Homo sapiens, UniProt P46098)
- Sequence (P46098 24-478): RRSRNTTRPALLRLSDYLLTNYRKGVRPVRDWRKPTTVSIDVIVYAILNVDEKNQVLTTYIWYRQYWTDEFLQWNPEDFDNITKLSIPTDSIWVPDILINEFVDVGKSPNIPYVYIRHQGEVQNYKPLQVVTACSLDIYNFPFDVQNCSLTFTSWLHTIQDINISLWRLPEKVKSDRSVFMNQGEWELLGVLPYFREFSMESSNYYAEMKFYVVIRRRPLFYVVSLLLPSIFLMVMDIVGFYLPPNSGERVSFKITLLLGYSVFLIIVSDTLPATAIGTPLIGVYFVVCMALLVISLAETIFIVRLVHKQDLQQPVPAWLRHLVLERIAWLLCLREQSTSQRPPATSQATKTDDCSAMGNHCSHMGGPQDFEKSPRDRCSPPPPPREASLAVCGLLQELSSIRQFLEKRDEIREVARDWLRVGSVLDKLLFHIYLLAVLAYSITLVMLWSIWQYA
- METHOD SUMMARY: TEVC in Xenopus oocytes, selectivity on 5-HT3A

COMPOUND | EC50
O=C(N[C@H]1CN2CCC1CC2)c1cc2cccc(Br)n2c1 [Br-IQ17B] | > 100 µM

====

- TARGET SYSTEM: rat α4β2 nAChR (Rattus norvegicus, UniProt P09483+P12390)
- METHOD SUMMARY: TEVC in Xenopus oocytes, selectivity on α4β2
pIC50: −log10 of the molar value.

COMPOUND | pIC50
O=C(N[C@H]1CN2CCC1CC2)c1cc2cccc(Br)n2c1 [Br-IQ17B] | < 4.00

====

- TARGET SYSTEM: α7 nAChR (Rattus norvegicus, UniProt Q05941)
- Sequence (Q05941 23-502): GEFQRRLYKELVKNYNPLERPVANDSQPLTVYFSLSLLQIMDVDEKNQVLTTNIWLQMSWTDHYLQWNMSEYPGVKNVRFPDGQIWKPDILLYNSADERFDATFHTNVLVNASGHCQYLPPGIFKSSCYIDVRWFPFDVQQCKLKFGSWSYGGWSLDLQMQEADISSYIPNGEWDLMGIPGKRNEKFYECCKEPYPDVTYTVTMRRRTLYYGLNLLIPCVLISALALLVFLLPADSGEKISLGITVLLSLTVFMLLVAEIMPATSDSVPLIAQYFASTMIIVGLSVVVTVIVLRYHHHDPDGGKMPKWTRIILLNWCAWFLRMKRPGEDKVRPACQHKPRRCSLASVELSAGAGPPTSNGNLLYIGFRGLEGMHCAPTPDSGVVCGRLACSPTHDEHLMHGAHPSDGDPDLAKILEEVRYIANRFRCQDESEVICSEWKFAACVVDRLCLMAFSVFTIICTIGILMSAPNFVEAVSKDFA
pKi: −log10 of the molar value.

COMPOUND | pKi
O=C(N[C@H]1CN2CCC1CC2)c1cc2cccc(Br)n2c1 [Br-IQ17B] | 7.83

====

- TARGET SYSTEM: UniProt:P36544
- Sequence (P36544 23-502): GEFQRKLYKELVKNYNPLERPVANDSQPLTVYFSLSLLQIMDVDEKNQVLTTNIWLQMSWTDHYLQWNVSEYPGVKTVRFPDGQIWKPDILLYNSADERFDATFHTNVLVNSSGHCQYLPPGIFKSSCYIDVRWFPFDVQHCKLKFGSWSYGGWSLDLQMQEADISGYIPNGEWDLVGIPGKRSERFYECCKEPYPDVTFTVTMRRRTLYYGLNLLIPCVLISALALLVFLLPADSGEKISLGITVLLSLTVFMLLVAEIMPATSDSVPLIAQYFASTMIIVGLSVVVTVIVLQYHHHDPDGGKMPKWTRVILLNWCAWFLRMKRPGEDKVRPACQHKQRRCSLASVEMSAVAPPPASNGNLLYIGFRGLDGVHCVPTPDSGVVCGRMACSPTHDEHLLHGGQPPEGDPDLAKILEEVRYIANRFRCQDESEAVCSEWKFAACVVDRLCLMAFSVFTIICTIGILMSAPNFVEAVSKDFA
- METHOD SUMMARY: Two-electrode voltage clamp
pEC50: −log10 of the molar value.

SMILES STRING | pEC50
O=C(N[C@H]1CN2CCC1CC2)c1cc2cccc(Cl)c2s1 | 6.35

Data provenance is paper PMC4648113.
